Entry source: patent US20100311648A1

- system: T1, human melanocortin-4 receptor (human, UniProt P32245 1-332)
- T1 construct: whole, on cells; functional assay: HEK293-T-REx-MC4-R cells induced with 0.1 or 10 ng/mL doxycycline; also called hMC4-R; MC4-R
- T1 sequence (P32245 whole entry): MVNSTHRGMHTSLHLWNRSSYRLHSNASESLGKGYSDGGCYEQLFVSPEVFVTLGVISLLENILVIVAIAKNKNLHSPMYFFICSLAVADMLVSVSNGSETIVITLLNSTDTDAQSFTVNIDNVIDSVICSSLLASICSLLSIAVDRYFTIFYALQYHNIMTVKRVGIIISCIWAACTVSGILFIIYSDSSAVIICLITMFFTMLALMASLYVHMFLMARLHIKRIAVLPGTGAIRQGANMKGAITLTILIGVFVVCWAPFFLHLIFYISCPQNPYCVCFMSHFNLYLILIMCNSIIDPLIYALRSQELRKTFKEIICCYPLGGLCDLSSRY
- protocol.details: [I125]-NDP-α-MSH competition, hMC4-R HEK-293 membranes
pKi: −log10 of the molar value. Positions of bridges follow the written chain, without caps; N, C: chain ends. Non-standard residues stand in square brackets, D forms with d. dPhe(2-CF3) = N[C@H](Cc1ccccc1C(F)(F)F)C(=O)O; dPhe(4-CN) = N#Cc1ccc(C[C@@H](N)C(=O)O)cc1; dPhe(3-Cl) = N[C@H](Cc1cccc(Cl)c1)C(=O)O; dPhe(2-Me) = Cc1ccccc1C[C@@H](N)C(=O)O; dPhe(4-F) = N[C@H](Cc1ccc(F)cc1)C(=O)O; Orn = NCCC[C@H](N)C(=O)O
pKi vs 8: at or above is 1, below is -1.

>>> group_label("Ac-RET[dPhe(4-CN)]RW[Orn]-NH2 (lactam 2-7; SMILES CC(=O)N[C@@H](CCCNC(=N)N)C(=O)N[C@H]1CCC(=O)NCCC[C@@H](C(N)=O)NC(=O)[C@H](Cc2c[nH]c3ccccc23)NC(=O)[C@H](CCCNC(=N)N)NC(=O)[C@@H](Cc2ccc(C#N)cc2)NC(=O)[C@H]([C@@H](C)O)NC1=O, also called No. 44) [Ac-Arg-cyclo(Glu-Thr-D-Phe(4-CN)-Arg-Trp-Orn)-NH2]")
-1
>>> group_label("Ac-RER[dPhe(3-Cl)]RW[Orn]-NH2 (lactam 2-7; SMILES CC(=O)N[C@@H](CCCNC(=N)N)C(=O)N[C@H]1CCC(=O)NCCC[C@@H](C(N)=O)NC(=O)[C@H](Cc2c[nH]c3ccccc23)NC(=O)[C@H](CCCNC(=N)N)NC(=O)[C@@H](Cc2cccc(Cl)c2)NC(=O)[C@H](CCCNC(=N)N)NC1=O, also called No. 99) [Ac-Arg-cyclo(Glu-Arg-D-Phe(3-Cl)-Arg-Trp-Orn)-NH2]")
1
>>> group_label("Ac-REE[dPhe(4-CN)]RW[Orn]-NH2 (lactam 2-7; SMILES CC(=O)N[C@@H](CCCNC(=N)N)C(=O)N[C@H]1CCC(=O)NCCC[C@@H](C(N)=O)NC(=O)[C@H](Cc2c[nH]c3ccccc23)NC(=O)[C@H](CCCNC(=N)N)NC(=O)[C@@H](Cc2ccc(C#N)cc2)NC(=O)[C@H](CCC(=O)O)NC1=O) [Ac-Arg-cyclo(Glu-Glu-D-Phe(4-CN)-Arg-Trp-Orn)-NH2]")
-1
>>> group_label("Ac-REQ[dPhe(4-F)]RW[Orn]-NH2 (lactam 2-7, also called No. 92) [Ac-Arg-cyclo(Glu-Gln-D-Phe(4-F)-Arg-Trp-Orn)-NH2]")
1
>>> group_label("Ac-REN[dPhe(4-F)]RW[Orn]-NH2 (lactam 2-7, also called No. 69) [Ac-Arg-cyclo(Glu-Asn-D-Phe(4-F)-Arg-Trp-Orn)-NH2]")
1
>>> group_label("Ac-R[Orn]N[dPhe(2-CF3)]RWE-NH2 (lactam 2-7) [Ac-Arg-cyclo(Orn-Asn-D-Phe(2-CF3)-Arg-Trp-Glu)-NH2]")
1
>>> group_label("Ac-RED[dPhe(4-CN)]RW[Orn]-NH2 (lactam 2-7; SMILES CC(=O)N[C@@H](CCCNC(=N)N)C(=O)N[C@H]1CCC(=O)NCCC[C@@H](C(N)=O)NC(=O)[C@H](Cc2c[nH]c3ccccc23)NC(=O)[C@H](CCCNC(=N)N)NC(=O)[C@@H](Cc2ccc(C#N)cc2)NC(=O)[C@H](CC(=O)O)NC1=O, also called No. 106) [Ac-Arg-cyclo(Glu-Asp-D-Phe(4-CN)-Arg-Trp-Orn)-NH2]")
-1
>>> group_label("Ac-REN[dPhe(2-Me)]RW[Orn]-NH2 (lactam 2-7, also called No. 73) [Ac-Arg-cyclo(Glu-Asn-D-Phe(2-Me)-Arg-Trp-Orn)-NH2]")
1
